test: NCI Yeast Anticancer Drug Screen. Data for the sgs1 mgt1 strain (AID 161);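 also: 0% = growth of cultures given vehicle only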; settings: S. cerevisiae sgs1 mgt1 strain, at 50.0 µM, hits give high values
This is part of a sample that, as a whole, favours compounds with a hit. Of some 79,000 tested, about 15% had one in any assay.
Record 1.0 whenever growth inhibition is at 10% or higher; record 0.0 when lower.

Q. Evaluate "OCCN=Cc1ccccc1O.OCCN=Cc1ccccc1O.[Ni]" : growth inhibition at minimum 10%?
A. 1.0

Q. Now give it for "CN(C)CCBr" too.
A. 1.0

Q. Try this compound next: "[Fe+5].[O-][Cl+3]([O-])([O-])O.[O-]c1ccccc1C=NCCN1CC1.[O-]c1ccccc1C=NCCN1CC1"
A. 1.0

Q. Another compound to check: "O=C1CN=CN1"
A. 0.0

Q. Same for "Cc1sc(Cc2ccccc2)nc1-c1ccc(N=Cc2ccc(N(CCCl)CCCl)cc2)cc1"
A. 1.0

Q. Would you mind doing "CN(C)c1ccc2c(c1)Cc1ccccc1-2" as well?
A. 1.0

Q. Okay, and CC1=NN(c2ccccc2)C(=O)C1N=Nc1ccc([As](=O)(O)O)c(O)c1 (configuration not stated) ?
A. 0.0

Q. Similarly, COC(CNS(=O)(=O)c1ccccc1)[CH2][Hg][O]C(C)=O (configuration not stated) ?
A. 1.0

Q. Another compound: CN1CCC2=C(c3ccccc3)c3ccccc3C2C1 (configuration not stated)
A. 1.0

Q. Thanks! And "Cc1cccc(NC(=O)CCl)c1" ?
A. 1.0

Q. Now the same for CC1COC(Nc2cccc3c2CCCC3)=N1 (configuration not stated)
A. 0.0

Q. Same lookup for CCC1(Sc2ncnc3c2ncn3C2OC(CO)C(O)C2O)C(=O)NC(=O)NC1=O (configuration not stated) , please.
A. 0.0

Q. Also, "Nc1ccc([N+](=O)[O-])cc1[N+](=O)[O-]" please.
A. 0.0

Q. Here is the next compound: "Oc1ccc(Cc2ccc(O)cc2)cc1"
A. 0.0

Q. Please answer likewise for "CCOP(=S)(OCC)SCc1c(C)c(C)c(CSP(=S)(OCC)OCC)c(C)c1C"
A. 0.0

Q. What do we get for "O=[N+]([O-])c1c(F)cc(F)c([N+](=O)[O-])c1F" ?
A. 0.0

Q. // repeat for CC12C(=O)C(C)(C(c3ccccc3)=C1c1ccccc1)C1(C#N)NC21C#N (configuration not stated) and report
A. 1.0

Q. Further, for "O=[N+]([O-])c1cc(-c2ccc([As](=O)(O)O)cc2)ccc1[As](=O)(O)O" ?
A. 0.0

Q. Repeat for the following compound: "ClCc1ccco1"
A. 1.0

Q. Param item: "CC(C)CCC[C@@H](C)[C@H]1CC[C@H]2[C@@H]3CC=C4C[C@@H](OC(=O)F)CC[C@]4(C)[C@H]3CC[C@]12C"
A. 1.0

Q. Please answer likewise for "N#CC(Cl)(Cl)CCl"
A. 0.0

---

assay: NCI Yeast Anticancer Drug Screen. Data for the cln2 rad14 strain (AID 165);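 also: 0% = growth equal to vehicle treated cultures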; conditions: S. cerevisiae cln2 rad14 strain, at 50.0 µM, hits give high values
The panel holds about 79,000 compounds, 15% with a hit somewhere; the sample as a whole holds those more often.
Reported growth inhibition values follow for various compounds
The figure you give is taken to be in %; do not add the unit.

Record excerpt, results attached:
{"Compound": "CC1=C[C@H]2O[C@@H]3[C@H](O)[C@@H](O)[C@](C)(C2(COC(=O)CCl)CC1)[C@@]31CO1 (stereo partly specified)", "Meas Value": 90.2}
{"Compound": "O=C(O)CN(CCN(CC(=O)O)CC(=O)O)CC(=O)O.[Co+2]", "Meas Value": 19.1}
{"Compound": "CC(COC(=O)NCc1ccc(Cl)cc1Cl)OC(N)=O (stereo unspecified)", "Meas Value": -12.8}
{"Compound": "CCOC(=O)CC1=N/C(=N/C(=N)N[N+](=O)[O-])SC1", "Meas Value": 7.6}
{"Compound": "CN(C)P(=O)(N(C)C)N(C)C", "Meas Value": -16.9}
{"Compound": "CC1=C2C(=CC(C)(C)[C@@H]2O)C(=O)[C@](C)(O)C12CC2", "Meas Value": 84.8}
{"Compound": "C[CH2][Pb]([CH2]C)([CH2]C)[O]C(=O)c1ccccc1", "Meas Value": -3.35}
{"Compound": "CN(CCOC(=O)c1ccc(Br)cc1)[N+](=O)[O-]", "Meas Value": 5.8}
{"Compound": "CC(C)CCCC(C)C1CCC2C3CC=C4CC(OC(=O)CN5CC5)CCC4(C)C3CCC12C (stereo unspecified)", "Meas Value": -6.85}
{"Compound": "CC(CCc1ccccc1)NC(C)C(O)c1ccc(O)cc1 (stereo unspecified)", "Meas Value": 68.3}

Q. State the recorded growth inhibition for this entry: O=C1CN2CCCCC2CN1 (stereo unspecified)
A. 24.9
